System: Rattus norvegicus
assay.notes: Inhibition of firing rates of dopaminergic neurons in the substantia nigra pars compacta by intravenous injection in rats.
Type: functional
readout: ED50 (µmol/kg)
A number alone suffices; assume µmol/kg.

Task: Checklist item: ED50 tested on Rattus norvegicus, entry "CCCN1CC[C@@H]2Cc3c(O)cccc3C[C@H]21" , value?
Output: 0.0014

Task: Checklist item: ED50 tested on Rattus norvegicus, entry "C=CCN1CC[C@@H]2Cc3c(O)cccc3C[C@H]21" , value?
Output: 0.002

Task: Checklist item: ED50 tested on Rattus norvegicus, entry "C=CCN1CC[C@H]2Cc3c(O)cccc3C[C@@H]21" , value?
Output: 0.94

Task: Checklist item: ED50 tested on Rattus norvegicus, entry "CN1CCc2cccc3c2[C@H]1Cc1ccc(O)c(O)c1-3" , value?
Output: 0.031
